tested on: RXF-631 renal; assay: NCI tumour cell line growth inhibition, 48 h
MEASURED_QUANTITY: TGI

CCOC(=O)C1(C/C=C(/C)Cl)CCCC1=O (stereo not given) | > 100 µM
Cc1ccc(S(=O)(=O)N/N=C(\c2nc3ccc(Cl)cc3[nH]c2=O)C(O)c2cccc([N+](=O)[O-])c2)cc1 (stereo not given) | > 100 µM
COc1ccc(S(=O)(=O)Nc2ccccc2C(=O)O)cc1 | > 100 µM

Please give the measured TGI for this compound: `Cc1cc2c(ccc3c(C)cc(=O)oc32)o1`
> 100 µM

If you can, please state the reported TGI value of CCC[CH2][Sn]1([CH2]CCC)[O]CC(Cc2ccccc2)[O]1 (stereo not given) .
2.94 µM
